# Tested on: ACHN (Kidney Carcinoma)
# METHOD SUMMARY: Bliss excess, mean over the matrix (fraction); higher = more synergy;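 also: after 72 h of two-drug dosing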
We use -0.04 as the dividing line for Bliss excess: on or above the line is class 1, below is class 0.

Prompt line: Hi, just wondering whether CCc1c2c(nc3ccc(O)cc13)-c1cc3c(c(=O)n1C2)COC(=O)[C@]3(O)CC [SN-38] + CN(C)CCCOc1ccc(-c2ccc3ncc4c(c3c2)n(C2CCOCC2)c(=O)n4C)cn1 [AZD0156] (first compound max 0.3 µM, 7x7, partner max 1 µM) shows Bliss excess of -0.04 or higher.
Response line: class 1

Prompt line: Consider next the compound C[C@@H](c1ccc2nccn2c1)n1nnc2ncc(-c3cnn(C)c3)nc21 [Savolitinib] + CC1(C)CCC(CN2CCN(c3ccc(C(=O)NS(=O)(=O)c4ccc(NCC5CCOCC5)c([N+](=O)[O-])c4)c(Oc4cnc5[nH]ccc5c4)c3)CC2)=C(c2ccc(Cl)cc2)C1 [Venetoclax] (first compound max 1 µM, 7x7, partner max 1 µM) in the same way.
Response line: class 0

Prompt line: Consider next the compound COc1cc2ncnc(Nc3ccc(F)c(Cl)c3)c2cc1OCCCN1CCOCC1 [Gefitinib] + CC(C)n1c(=O)n(C)c2cnc3cc(F)c(-c4ccc(OCCCN5CCCCC5)nc4)cc3c21 [AZD1390] (first compound max 10 µM, 7x7, partner max 0.3 µM) in the same way.
Response line: class 0

Prompt line: Consider next the compound C=CCn1c(=O)c2cnc(Nc3ccc(N4CCN(C)CC4)cc3)nc2n1-c1cccc(C(C)(C)O)n1 [AZD1775] + O=C(c1cc(Cc2n[nH]c(=O)c3ccccc23)ccc1F)N1CCN(C(=O)C2CC2)CC1 [Olaparib] (first compound max 1 µM, partner max 10 µM) in the same way.
Response line: class 0

Prompt line: Consider next the compound CC1(C)CCC(CN2CCN(c3ccc(C(=O)NS(=O)(=O)c4ccc(NCC5CCOCC5)c([N+](=O)[O-])c4)c(Oc4cnc5[nH]ccc5c4)c3)CC2)=C(c2ccc(Cl)cc2)C1 [Venetoclax] + CS(=O)(=O)CCNCc1ccc(-c2ccc3ncnc(Nc4ccc(OCc5cccc(F)c5)c(Cl)c4)c3c2)o1 [Lapatinib] (first compound max 1 µM, 7x7, partner max 10 µM) in the same way.
Response line: class 1

====

# System: NCI-H358 (Lung Adenocarcinoma)
# METHOD SUMMARY: Bliss excess, mean over the matrix (fraction); higher = more synergy
Answer each item with its documented Bliss excess.
Reply briefly: the number, and no unit.

Prompt line: Dear colleague, I am looking for the recorded Bliss excess of the following compound: C[C@@H](c1ccc2nccn2c1)n1nnc2ncc(-c3cnn(C)c3)nc21 [Savolitinib] + CC1(C)CCC(CN2CCN(c3ccc(C(=O)NS(=O)(=O)c4ccc(NCC5CCOCC5)c([N+](=O)[O-])c4)c(Oc4cnc5[nH]ccc5c4)c3)CC2)=C(c2ccc(Cl)cc2)C1 [Venetoclax] (first compound max 1 µM, 7x7, partner max 1 µM)
Response line: -0.0564

Prompt line: Consider next the compound Cc1nc(-c2cn3c(n2)-c2ccc(-c4cnn(C(C)(C)C(N)=O)c4)cc2OCC3)n(C(C)C)n1 [Taselisib] + O=C(Nc1ccc2[nH]nc(-c3ccncc3)c2c1)[C@@H]1CCN(CC(=O)N2CCN(c3ccc(-c4ncccn4)cc3)CC2)C1 [SCH772984] (first compound max 10 µM, 7x7, partner max 5 µM) in the same way.
Response line: 0.0402

Prompt line: Consider next the compound Cc1c2c(nn1C)CSCc1cc(n(C)n1)CSc1cc(c3ccccc3c1)OCCCc1c(C(=O)O)n(C)c3c-2c(Cl)ccc13 [AZD5991] + Nc1ccn([C@@H]2O[C@H](CO)[C@@H](O)C2(F)F)c(=O)n1 [Gemcitabine] (first compound max 1 µM, 7x7, partner max 0.3 µM) in the same way.
Response line: -0.0276

Prompt line: Consider next the compound CN(CCO)CC[C@H](CSc1ccccc1)Nc1ccc(S(=O)(=O)NC(=O)c2ccc(N3CCC([C@@H](O)c4ccccc4-c4ccc(Cl)cc4)CC3)cc2)cc1S(=O)(=O)C(F)(F)F [AZD4320] + C1CN(CCC1(C(=O)N[C@@H](CCO)C2=CC=C(C=C2)Cl)N)C3=NC=NC4=C3C=CN4 [Capivasertib] (first compound max 1 µM, 7x7, partner max 3 µM) in the same way.
Response line: -0.0172

Prompt line: Consider next the compound O=C(c1cc(Cc2n[nH]c(=O)c3ccccc23)ccc1F)N1CCN(C(=O)C2CC2)CC1 [Olaparib] + CN(CC[C@H](CSC1=CC=CC=C1)NC2=C(C=C(C=C2)S(=O)(=O)NC(=O)C3=CC=C(C=C3)N4CCC(CC4)[C@H](C5=CC=CC=C5C6=CC=C(C=C6)Cl)O)S(=O)(=O)C(F)(F)F)CCO [AZD4320] (first compound max 10 µM, 7x7, partner max 1 µM) in the same way.
Response line: -0.0383

Prompt line: Consider next the compound CC1(C)CCC(CN2CCN(c3ccc(C(=O)NS(=O)(=O)c4ccc(NCC5CCOCC5)c([N+](=O)[O-])c4)c(Oc4cnc5[nH]ccc5c4)c3)CC2)=C(c2ccc(Cl)cc2)C1 [Venetoclax] + CS(=O)(=O)CCNCc1ccc(-c2ccc3ncnc(Nc4ccc(OCc5cccc(F)c5)c(Cl)c4)c3c2)o1 [Lapatinib] (first compound max 1 µM, 7x7, partner max 10 µM) in the same way.
Response line: -0.0321
